Biological target: human TLR9 (Homo sapiens)
Sequence (Q9NR96 26-1032): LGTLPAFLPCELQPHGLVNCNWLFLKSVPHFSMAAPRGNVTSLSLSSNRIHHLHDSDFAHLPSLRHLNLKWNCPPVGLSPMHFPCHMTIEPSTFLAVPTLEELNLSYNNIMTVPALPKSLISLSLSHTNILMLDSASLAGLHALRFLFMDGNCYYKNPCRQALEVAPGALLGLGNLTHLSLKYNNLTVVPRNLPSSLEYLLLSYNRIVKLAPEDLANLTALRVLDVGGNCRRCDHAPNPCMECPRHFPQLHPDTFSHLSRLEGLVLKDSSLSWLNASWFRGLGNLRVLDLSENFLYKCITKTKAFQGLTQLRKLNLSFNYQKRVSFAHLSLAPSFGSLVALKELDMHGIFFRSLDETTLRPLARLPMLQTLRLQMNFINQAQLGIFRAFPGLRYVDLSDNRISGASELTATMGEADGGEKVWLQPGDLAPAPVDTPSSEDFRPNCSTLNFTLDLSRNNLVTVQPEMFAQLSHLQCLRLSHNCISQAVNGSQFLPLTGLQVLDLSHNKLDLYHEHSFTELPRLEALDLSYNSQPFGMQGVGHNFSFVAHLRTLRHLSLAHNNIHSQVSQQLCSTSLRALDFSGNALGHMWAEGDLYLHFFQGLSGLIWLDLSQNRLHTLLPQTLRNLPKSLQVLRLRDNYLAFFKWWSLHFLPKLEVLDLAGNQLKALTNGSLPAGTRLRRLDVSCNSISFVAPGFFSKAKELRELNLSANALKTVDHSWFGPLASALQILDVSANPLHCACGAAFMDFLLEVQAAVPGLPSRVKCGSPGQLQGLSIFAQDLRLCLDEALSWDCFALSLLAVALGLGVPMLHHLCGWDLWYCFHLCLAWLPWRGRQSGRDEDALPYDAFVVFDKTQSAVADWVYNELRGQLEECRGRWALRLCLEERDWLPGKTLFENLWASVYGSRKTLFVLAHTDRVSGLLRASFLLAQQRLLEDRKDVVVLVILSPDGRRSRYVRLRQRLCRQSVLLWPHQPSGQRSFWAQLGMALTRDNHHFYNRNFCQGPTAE
Test: TLR9 inhibition reporter assay (HEK-Blue cells, SEAP reporter)
Settings: HEK-Blue cells overexpressing human TLR9; stimulated with ODN2006 5 nM; 22 hour incubation; SEAP readout
reported_endpoint: IC50 (µM)

compound	IC50, µM
COCCN1CCN(c2ccc(-c3cc(C)c4nc(-c5ccc(OC)c(OC)c5)cn4c3)cc2)CC1	0.456

[1] COc1ccc(-c2cn3c(n2)CCC(C2CCN(C4CC5(C4)CN(CC(C)C)C5)CC2)C3)cc1OC (racemic) [Example 52]
[2] CC1CC(c2ccc(N3CCN(C(C)C)CC3)cc2)Cn2nc(-c3ccc(S(C)(=O)=O)cc3)nc21 (stereo not shown)
Query: So which one has the bigger IC50 here, 1 or 2 ? Record your answer as the label of the chosen record.
Result: 2

[1] Cc1cc(C2CCN(C3CCN(C4CC4)CC3)CC2)cn2nc(-c3ccc(S(C)(=O)=O)cc3)nc12
[2] COc1ccc(-c2cn3c(n2)CCC(C2CCN(C4CCN(C(=O)C(C)C)CC4)CC2)C3)cc1OC (single isomer, unassigned) [Example 41]
Query: Which value of IC50 is numerically greater: that of 1 or that of 2 ? I would appreciate it if you answered with the label of your choice.
Result: 1

[I] COc1ccc(-c2cn3c(n2)CCC(C2CCN(C4CC5(C4)CN(C(C)C)C5)CC2)C3)cc1OC (single isomer, unassigned) [Example 46]
[II] COc1ccc(-c2cn3c(n2)CCC(C2CCN(C4CCN(CC(C)C)CC4)CC2)C3)cc1OC (single isomer, unassigned) [Example 32]
Query: When their IC50 values are compared, which is larger, I or II ? Write down the label of the entry you select.
Result: I
(I: 0.272 µM, II: 0.038 µM)

[P] CC(C)CN1C2CCC1CC(N1CCC([C@@H]3CCc4nc(-c5ccc(S(C)(=O)=O)cc5)cn4C3)CC1)C2 (single isomer, unassigned) [Example 82]
[Q] COc1ccc(-c2cn3cc(C4CCN(C5CCN(C6CC6)CC5)CC4)ccc3n2)cc1OC
Query: Between the entries labeled P and Q , whose measured IC50 is lower? State the label of the item chosen.
Result: P
